TESTED_ON: T1, Recombinant human OX40 extracellular domain fused to human IgG1 Fc (human, UniProt P43489 29-214)
T1 construct: Produced in-house; also called OX40 ECD-Fc; human OX40 ECD-Fc; not shown: human IgG1 Fc
T1 sequence: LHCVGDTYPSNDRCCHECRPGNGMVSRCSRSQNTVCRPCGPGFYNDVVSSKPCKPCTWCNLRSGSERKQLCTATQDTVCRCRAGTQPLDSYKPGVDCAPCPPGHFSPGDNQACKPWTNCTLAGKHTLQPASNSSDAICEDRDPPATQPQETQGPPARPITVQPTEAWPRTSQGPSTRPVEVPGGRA
ASSAY: Octet, human OX40 ECD-Fc immobilized on a biosensor chip
Assignment: determine reported Kd for the given binders.
The response must be a number in nM with no trailing unit.

Look up Kd of 2B7 VHH-Fc bivalent antibody (antibody, human IgG1, V domains shown, also called 2B7-bivalent) VH: EVQLVESGGGLVQPGGSLRLSCAASGPLGAPSIAWFRQAPGKGLEFVSGIAWSTGDTYYADSVKGRFTISRDNSKNTLYLQMNSLRAEDTAVYYCAADTSVHYMGRHDIRDYEEYDYWGQGTLVTVSS and report it.
3.68

Give recorded Kd. 2B7 tetravalent anti-OX40 antibody (2B7 VHH with GS linker on CH1 and on CL of human IgG1) (antibody, V domains shown) V domain 1: EVQLVESGGGLVQPGGSLRLSCAASGPLGAPSIAWFRQAPGKGLEFVSGIAWSTGDTYYADSVKGRFTISRDNSKNTLYLQMNSLRAEDTAVYYCAADTSVHYMGRHDIRDYEEYDYWGQGTLVTVSS V domain 2: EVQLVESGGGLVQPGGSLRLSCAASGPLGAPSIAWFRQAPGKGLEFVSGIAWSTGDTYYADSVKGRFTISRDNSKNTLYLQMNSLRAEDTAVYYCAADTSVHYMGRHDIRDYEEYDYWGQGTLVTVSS
6.94

Given 1B3 VHH-Fc bivalent antibody (antibody, human IgG1, V domains shown, also called 1B3-bivalent) VH: EVQLVESGGGLVQPGGSLRLSCAASGPLGMPSIAWFRQAPGKGLEFVSGIAWSTGDTYYADSVKGRFTISRDNSKNTLYLQMNSLRAEDTAVYYCAADTQVHYMGRHDIRDREEYDYWGQGTLVTVSS , respond with its Kd.
3.83

Look up Kd of 1B3 tetravalent anti-OX40 antibody (1B3 VHH with GS linker on CH1 and on CL of human IgG1) (antibody, V domains shown, Four-chain format; The heavy and light variable regions of human IgG1 are replaced by the VHH) V domain 1: EVQLVESGGGLVQPGGSLRLSCAASGPLGMPSIAWFRQAPGKGLEFVSGIAWSTGDTYYADSVKGRFTISRDNSKNTLYLQMNSLRAEDTAVYYCAADTQVHYMGRHDIRDREEYDYWGQGTLVTVSS V domain 2: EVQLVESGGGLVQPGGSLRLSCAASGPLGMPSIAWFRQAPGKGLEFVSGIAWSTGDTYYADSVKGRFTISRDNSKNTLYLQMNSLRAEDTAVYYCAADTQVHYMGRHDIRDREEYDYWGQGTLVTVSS and report it.
6.57
